Reference source: the supplement of paper PMC13380429

inhibition of SARS-CoV-2 cytopathic effect listing for selected molecules.
# System: Vero E6 infected with SARS-CoV-2
# ASSAY_PROTOCOL: inhibition of SARS-CoV-2 cytopathic effect; higher = more antiviral protection, active = above 15
# EXPERIMENTAL_PARAMETERS: 100 nM; 48 h
Value expressed in %; do not type the unit.

Some entries whose results are on file:
MOLECULE	EXPERIMENTAL_VALUE
CCCCCCCCCCCCCCCC(=O)OC[C@H](COP(=O)([O-])OCC[N+](C)(C)C)OC(=O)CCCCCCCCCCCCCCC [colfosceril-palmitate]	-5.95
CO[C@@]12[C@H](COC(N)=O)C3=C(C(=O)C(C)=C(N)C3=O)N1C[C@@H]1N[C@@H]12	-0.38
CN(C)Cc1cccc(N/C(=C2\C(=O)Nc3cc(C(N)=O)ccc32)c2ccccc2)c1	0.04

Response field inhibition of SARS-CoV-2 cytopathic effect (Vero E6 infected with SARS-CoV-2) for item C[C@@H]1O[C@@H](O[C@H]2[C@H](Oc3cc(O)c4c(c3)O[C@H](c3ccc(O)cc3)CC4=O)O[C@H](CO)[C@@H](O)[C@@H]2O)[C@H](O)[C@H](O)[C@H]1O [Naringin (Naringoside)] : -3.02

Response field inhibition of SARS-CoV-2 cytopathic effect (Vero E6 infected with SARS-CoV-2) for item NC(=O)N1c2ccccc2CC(=O)c2ccccc21 [oxcarbazepine] : 4.19

Response field inhibition of SARS-CoV-2 cytopathic effect (Vero E6 infected with SARS-CoV-2) for item CNC(=O)c1cccc(-c2ccc3c(N4CCOC[C@@H]4C)nc(N4CCOC[C@@H]4C)nc3n2)c1 : -1.86

Response field inhibition of SARS-CoV-2 cytopathic effect (Vero E6 infected with SARS-CoV-2) for item COc1ccc(S(=O)(=O)Nc2nc(-c3cccc([N+](=O)[O-])c3)cs2)cc1OC : 7.06

Response field inhibition of SARS-CoV-2 cytopathic effect (Vero E6 infected with SARS-CoV-2) for item NC(=O)OCCCc1ccccc1 [phenprobamate] : -0.42

Response field inhibition of SARS-CoV-2 cytopathic effect (Vero E6 infected with SARS-CoV-2) for item C[C@@H](Oc1ccc2[nH]nc(/C=C/c3cnn(CCO)c3)c2c1)c1c(Cl)cncc1Cl : -1.04

Response field inhibition of SARS-CoV-2 cytopathic effect (Vero E6 infected with SARS-CoV-2) for item CN(C)c1cc(CNCC(C)(C)C)c(O)c2c1C[C@H]1C[C@H]3[C@H](N(C)C)C(O)=C(C(N)=O)C(=O)[C@@]3(O)C(O)=C1C2=O : 1.58

Response field inhibition of SARS-CoV-2 cytopathic effect (Vero E6 infected with SARS-CoV-2) for item CC(C)n1cnc2c(NCCc3ccc(O)cc3)nc(-c3csc4ccccc34)nc21 : 1.35

Response field inhibition of SARS-CoV-2 cytopathic effect (Vero E6 infected with SARS-CoV-2) for item CCCn1c(=O)[nH]c(=O)c2nc[nH]c21 : 1.89

Response field inhibition of SARS-CoV-2 cytopathic effect (Vero E6 infected with SARS-CoV-2) for item O=C1CCc2ccc(OCCCCN3CCN(c4cccc(Cl)c4Cl)CC3)cc2N1 : 1.15

Response field inhibition of SARS-CoV-2 cytopathic effect (Vero E6 infected with SARS-CoV-2) for item N[C@@H](Cc1ccc(O)cc1)C(=O)O [plovamer-acetate] : -9.88

Response field inhibition of SARS-CoV-2 cytopathic effect (Vero E6 infected with SARS-CoV-2) for item NCCc1cc[nH]n1 : 2.63

Response field inhibition of SARS-CoV-2 cytopathic effect (Vero E6 infected with SARS-CoV-2) for item N#Cc1cnc2c(Cl)cc(NCc3cn(CCN4CCCCCC4)nn3)cc2c1Nc1ccc(F)c(Cl)c1 : -0.11

Response field inhibition of SARS-CoV-2 cytopathic effect (Vero E6 infected with SARS-CoV-2) for item Nc1nc(NC2CC2)cc(-c2cccc(Cl)c2Cl)n1 : -1.96
